- System: HIF and VHL target genes
- method: Gene expression profiling and gene set enrichment analysis (GSEA) of compound treated 786-O cells
- Type: cell-based, human
- cond: 786-O cells, GSEA normalized enrichment score
measurement_label: NES, gene set WT8, VHL WT (markers of WT8 cells compared to PRC3 cells)

                                   compound  value_observed
0  CC1(C)CC(=O)C=C(Sc2ccc(C#N)cc2[N+](=O)[O-])S1 [Compound 77]       NES: 1.88
1  COC(=O)c1sccc1N/N=C(/C#N)S(C)(=O)=O [Compound 76]       NES: 1.88
